Reported molar heat capacity at constant pressure by item:
# assay-remarks: molar heat capacity at constant pressure
# condition-notes: 298.15 K; 101.33 kPa; Liquid; Small sample (50 mg) DSC
Report the figure in J/K/mol without appending any unit label.

Look over these answered cases.
compound: C[N+](=O)[O-]
number: 106.9
--
compound: CCn1cc[n+](C)c1.O=S(=O)([O-])C(F)(F)F [1-ethyl-3-methylimidazolium trifluoromethanesulfonate]
number: 363.2
--
compound: CCCCCCn1cc[n+](C)c1.F[B-](F)(F)F [1-hexyl-3-methylimidazolium tetrafluoroborate]
number: 427.8
--
compound: CCOS(=O)(=O)[O-].CCn1cc[n+](C)c1 [1-ethyl-3-methylimidazolium ethyl sulfate]
number: 394.4
--
compound: CCCCn1cc[n+](C)c1.O=S(=O)([O-])C(F)(F)F [1-butyl-3-methylimidazolium trifluoromethanesulfonate]
number: 424.1

What molar heat capacity at constant pressure value was documented for this compound, CCCCn1cc[n+](C)c1.COS(=O)(=O)[O-] [1-butyl-3-methylimidazolium methyl sulfate] ?
416.2

What molar heat capacity at constant pressure value was documented for this compound, CCCCn1cc[n+](C)c1.F[B-](F)(F)F [1-butyl-3-methylimidazolium tetrafluoroborate] ?
363.1

* * *

# condition-notes: 308.15 K; 101.33 kPa; Liquid; Vibrating tube method
Reported mass density by item:
Report the figure in kg/m3 without appending any unit label.

What mass density value was documented for this compound, CCOS(=O)(=O)[O-].CCn1cc[n+](C)c1 [1-ethyl-3-methylimidazolium ethyl sulfate] ?
1230.4

What mass density value was documented for this compound, CCn1cc[n+](C)c1.O=S(=O)([O-])C(F)(F)F [1-ethyl-3-methylimidazolium trifluoromethanesulfonate] ?
1376.9

What mass density value was documented for this compound, CCCCn1cc[n+](C)c1.O=S(=O)([O-])C(F)(F)F [1-butyl-3-methylimidazolium trifluoromethanesulfonate] ?
1289.7

What mass density value was documented for this compound, CCCCCCn1cc[n+](C)c1.F[B-](F)(F)F [1-hexyl-3-methylimidazolium tetrafluoroborate] ?
1138.4

What mass density value was documented for this compound, `C[N+](=O)[O-]` ?
1119.7

What mass density value was documented for this compound, CCCCn1cc[n+](C)c1.F[B-](F)(F)F [1-butyl-3-methylimidazolium tetrafluoroborate] ?
1197

What mass density value was documented for this compound, CCCCn1cc[n+](C)c1.COS(=O)(=O)[O-] [1-butyl-3-methylimidazolium methyl sulfate] ?
1200.8

* * *

# condition-notes: 313.15 K; 101.33 kPa; Liquid; Vibrating tube method
metric: mass density (kg/m3)
Report the figure in kg/m3 without appending any unit label.

Look over these answered cases.
molecule: CCCCn1cc[n+](C)c1.F[B-](F)(F)F [1-butyl-3-methylimidazolium tetrafluoroborate]
number: 1193.4
--
molecule: CCCCn1cc[n+](C)c1.O=S(=O)([O-])C(F)(F)F [1-butyl-3-methylimidazolium trifluoromethanesulfonate]
number: 1285.8
--
molecule: CCOS(=O)(=O)[O-].CCn1cc[n+](C)c1 [1-ethyl-3-methylimidazolium ethyl sulfate]
number: 1227
--
molecule: CCCCn1cc[n+](C)c1.COS(=O)(=O)[O-] [1-butyl-3-methylimidazolium methyl sulfate]
number: 1197.5
--
molecule: C[N+](=O)[O-] [nitromethane]
number: 1112.9

What mass density value was documented for this molecule, CCn1cc[n+](C)c1.O=S(=O)([O-])C(F)(F)F [1-ethyl-3-methylimidazolium trifluoromethanesulfonate] ?
1372.7

What mass density value was documented for this molecule, CCCCCCn1cc[n+](C)c1.F[B-](F)(F)F [1-hexyl-3-methylimidazolium tetrafluoroborate] ?
1135
